testedTarget: Cyclin-dependent kinase 6 (Homo sapiens);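 also: mean percent inhibition of the kinase bound to its cyclin partner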
protocolConditions: at 1 µM
measuredAttribute: inhibition (%)

{"querySmiles": "NC(=O)c1ccc2c(-c3ccnc(NCCCO)n3)c(-c3ccc(F)cc3)nn2c1", "testedTarget": "Cyclin-dependent kinase 6 (Homo sapiens)", "assayValue": 1.97}
{"querySmiles": "COc1cc(N2CCN(C(C)C)CC2)ccc1Nc1nc(Nc2cccc(F)c2C(=O)O)c2cc[nH]c2n1", "testedTarget": "Cyclin-dependent kinase 6 (Homo sapiens)", "assayValue": 4.74}
{"querySmiles": "COc1cccc(-n2ncc3c(N/N=C/c4ccc(C(=O)NCCN(C)C)cc4)ncnc32)c1", "testedTarget": "Cyclin-dependent kinase 6 (Homo sapiens)", "assayValue": 81.5}
{"querySmiles": "Fc1cccc(COc2ccc(Nc3ncncc3C#Cc3ccccc3)cc2Cl)c1", "testedTarget": "Cyclin-dependent kinase 6 (Homo sapiens)", "assayValue": 2.89}
{"querySmiles": "Cc1cc(O)cc(C)c1/C=C/c1cncc(C(=O)OC(C)(C)C)c1", "testedTarget": "Cyclin-dependent kinase 6 (Homo sapiens)", "assayValue": 5.01}
{"querySmiles": "NS(=O)(=O)c1ccc(N/N=C2\\C(=O)Nc3ccc(C(=O)NCc4ccncc4)cc32)cc1", "testedTarget": "Cyclin-dependent kinase 6 (Homo sapiens)", "assayValue": 58.6}
{"querySmiles": "CS(=O)(=O)CCNCc1ccc(-c2ccc3ncnc(Nc4ccc(OCc5cccc(C(F)(F)F)c5)cc4)c3c2)o1", "testedTarget": "Cyclin-dependent kinase 6 (Homo sapiens)", "assayValue": 1.5}
{"querySmiles": "CCn1c(-c2nonc2N)nc2cncc(C(=O)NCCNC)c21", "testedTarget": "Cyclin-dependent kinase 6 (Homo sapiens)", "assayValue": 1.38}
{"querySmiles": "COC(=O)Nc1nc2ccc(Oc3ccc(NC(=O)Nc4cc(C(F)(F)F)ccc4F)cc3)cc2s1", "testedTarget": "Cyclin-dependent kinase 6 (Homo sapiens)", "assayValue": 2.05}
{"querySmiles": "Cc1cc(O)cc(C)c1/C=C/c1cncc(C(N)=O)c1", "testedTarget": "Cyclin-dependent kinase 6 (Homo sapiens)", "assayValue": 4.03}

* * *

testedTarget: Casein kinase I isoform alpha (Homo sapiens);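 also: values are the mean percent inhibition of CK1a, averaged over measurements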
protocolConditions: at 0.1 µM
measuredAttribute: inhibition (%)

{"querySmiles": "CNC(=O)c1cncc(/C=C/c2ccccc2C)c1", "outputUnit": "%", "assayValue": 1.22}
{"querySmiles": "Cn1c(-c2nonc2N)nc2cnccc21", "outputUnit": "%", "assayValue": 3.34}
{"querySmiles": "CN(C)CCNC(=O)Nc1ccc(N(C)c2ccnc(Nc3ccc(CS(C)(=O)=O)cc3)n2)cc1", "outputUnit": "%", "assayValue": 2.02}
{"querySmiles": "Cc1cc(O)cc(C)c1/C=C/c1cncc(C(=O)OC(C)(C)C)c1", "outputUnit": "%", "assayValue": 1.27}
{"querySmiles": "FC(F)(F)CNc1nccc(-c2cnn3ncccc23)n1", "outputUnit": "%", "assayValue": 3.2}
{"querySmiles": "N#Cc1cccc(Nc2ncc(-c3ccccc3)o2)c1", "outputUnit": "%", "assayValue": 1.55}
{"querySmiles": "CS(=O)(=O)CCNCc1ccc(-c2ccc3ncnc(Nc4ccc(OCc5ccccc5)cc4)c3c2)o1", "outputUnit": "%", "assayValue": 4.49}
{"querySmiles": "O=C1Nc2ccccc2/C1=C1\\CCc2cc(O)ccc21", "outputUnit": "%", "assayValue": 4.95}
{"querySmiles": "Cc1cc(O)cc(C)c1/C=C/c1cncc(C(N)=O)c1", "outputUnit": "%", "assayValue": -2.11}
{"querySmiles": "CS(=O)(=O)CCNCc1ccc(-c2ccc3ncnc(Nc4ccc(OCc5cccc(C(F)(F)F)c5)cc4)c3c2)o1", "outputUnit": "%", "assayValue": 5.05}
{"querySmiles": "COc1ccc(-c2nn3ncccc3c2-c2ccnc(Nc3ccc(F)c(F)c3)n2)cc1", "outputUnit": "%", "assayValue": 4.64}

Cited source: ChEMBL document CHEMBL1961873
